Exercise: for every item that follows, state its recorded MIC.
- Tested on: Staphylococcus aureus
- Method summary: Antibacterial activity against Staphylococcus aureus ATCC 25923 after 24 hr by serial dilution method
- Format: functional
- Condition notes: ATCC 25923, 24 h
// note: answer is a bare numeric in µg/mL

Task item: Hi! What's the reported MIC for CCN(CC)C(=O)Sc1nnc(CCCCc2nnc(SC(=O)N(CC)CC)n2-c2ccccc2)n1-c1ccccc1 on Staphylococcus aureus?
Reply: 50

Task item: Provide value of MIC for this record tested with Staphylococcus aureus: CCOC(=O)CSc1nnc(CCCCc2nnc(SCC(=O)OCC)n2-c2cccc(C)c2)n1-c1cccc(C)c1
Reply: 100

Task item: Find the measured MIC: item CCN(CC)C(=O)Sc1nnc(CCCCc2nnc(SC(=O)N(CC)CC)n2-c2cccc(C)c2)n1-c1cccc(C)c1 , target or system Staphylococcus aureus.
Reply: 50

Task item: Give Staphylococcus aureus MIC for NNC(=O)CSc1nnc(CCCCc2nnc(SCC(=O)NN)n2-c2ccccc2)n1-c1ccccc1
Reply: 25

Task item: What MIC appears in the records for this compound with Staphylococcus aureus? CCOc1ccc(-n2c(CCCCc3nnc(SCC(=O)NN)n3-c3ccc(OCC)cc3)nnc2SCC(=O)NN)cc1
Reply: 12.5

Task item: What is its MIC for Staphylococcus aureus? Entry: CCOC(=O)CSc1nnc(CCCCc2nnc(SCC(=O)OCC)n2-c2ccc(C)cc2)n1-c1ccc(C)cc1
Reply: 100

Task item: Request: MIC, test system Staphylococcus aureus, entry CC1(C)S[C@@H]2[C@H](NC(=O)[C@H](N)c3ccccc3)C(=O)N2[C@H]1C(=O)O [AMPICILLIN]
Reply: 6.25

Task item: Provide value of MIC for this record tested with Staphylococcus aureus: Cc1ccc(-n2c(CCCCc3nnc(SCC(=O)NN)n3-c3ccc(C)cc3)nnc2SCC(=O)NN)cc1
Reply: 12.5

Task item: Quick check: MIC on Staphylococcus aureus, item CCOC(=O)CSc1nnc(CCCCc2nnc(SCC(=O)OCC)n2-c2ccccc2)n1-c1ccccc1 ?
Reply: 100

Task item: Provide the documented MIC with Staphylococcus aureus as the system for CCN(CC)C(=O)Sc1nnc(CCCCc2nnc(SC(=O)N(CC)CC)n2-c2ccc(C)cc2)n1-c1ccc(C)cc1
Reply: 25

Task item: # query: MIC | item CCOC(=O)CSc1nnc(CCCCc2nnc(SCC(=O)OCC)n2-c2ccc(OCC)cc2)n1-c1ccc(OCC)cc1 | system: Staphylococcus aureus
Reply: 50

Task item: What measured MIC is associated with Cc1cccc(-n2c(CCCCc3nnc(SCC(=O)NN)n3-c3cccc(C)c3)nnc2SCC(=O)NN)c1 on Staphylococcus aureus?
Reply: 25

* * *

- System: Pseudomonas aeruginosa
- Method summary: Antibacterial activity against Pseudomonas aeruginosa ATCC 27853 after 24 hr by serial dilution method
- Assay type: functional
- Condition notes: ATCC 27853, 24 h
Reported metric: MIC (µg/mL)
Hi! Could you send only the number? It should be in µg/mL, unit omitted.

Task item: Bench note: what MIC did CCOC(=O)CSc1nnc(CCCCc2nnc(SCC(=O)OCC)n2-c2ccccc2)n1-c1ccccc1 show?
Reply: 100

Task item: What value of measured MIC is listed for CCOC(=O)CSc1nnc(CCCCc2nnc(SCC(=O)OCC)n2-c2ccc(C)cc2)n1-c1ccc(C)cc1 ?
Reply: 100

Task item: Entry CC1(C)S[C@@H]2[C@H](NC(=O)[C@H](N)c3ccccc3)C(=O)N2[C@H]1C(=O)O : reported MIC = ?
Reply: 12.5

Task item: For CCOc1ccc(-n2c(CCCCc3nnc(SCC(=O)NN)n3-c3ccc(OCC)cc3)nnc2SCC(=O)NN)cc1 , what is its reported MIC?
Reply: 12.5

Task item: Entry under review: CCOC(=O)CSc1nnc(CCCCc2nnc(SCC(=O)OCC)n2-c2ccc(OCC)cc2)n1-c1ccc(OCC)cc1 . Reported MIC?
Reply: 100

Task item: Which MIC is listed for CCOC(=O)CSc1nnc(CCCCc2nnc(SCC(=O)OCC)n2-c2cccc(C)c2)n1-c1cccc(C)c1 ?
Reply: 100

Task item: Data request, read-out MIC, for CCN(CC)C(=O)Sc1nnc(CCCCc2nnc(SC(=O)N(CC)CC)n2-c2ccccc2)n1-c1ccccc1
Reply: 50

Task item: Entry CCN(CC)C(=O)Sc1nnc(CCCCc2nnc(SC(=O)N(CC)CC)n2-c2cccc(C)c2)n1-c1cccc(C)c1 has what MIC?
Reply: 25

Task item: Need MIC, item Cc1ccc(-n2c(CCCCc3nnc(SCC(=O)NN)n3-c3ccc(C)cc3)nnc2SCC(=O)NN)cc1
Reply: 100

Task item: Return reported MIC; argument: NNC(=O)CSc1nnc(CCCCc2nnc(SCC(=O)NN)n2-c2ccccc2)n1-c1ccccc1
Reply: 100

Task item: Entry CCN(CC)C(=O)Sc1nnc(CCCCc2nnc(SC(=O)N(CC)CC)n2-c2ccc(C)cc2)n1-c1ccc(C)cc1 : reported MIC = ?
Reply: 25

* * *

- System: Bacillus subtilis
- Method summary: Antibacterial activity against Bacillus subtilis ATCC 6633 after 24 hr by serial dilution method
- Type: functional
- Condition notes: ATCC 6633, 24 h
For each of the molecules below, state its MIC.
The answer is to be given in µg/mL; state only the numeric part.

Task item: Given the entry Cc1cccc(-n2c(CCCCc3nnc(SCC(=O)NN)n3-c3cccc(C)c3)nnc2SCC(=O)NN)c1 , report its measured MIC.
Reply: 25

Task item: # input molecule: CCN(CC)C(=O)Sc1nnc(CCCCc2nnc(SC(=O)N(CC)CC)n2C2CCCCC2)n1C1CCCCC1 ; wanted: its MIC
Reply: 100

Task item: Can you look up the measured MIC of CCCCn1c(CCCCc2nnc(SCC(=O)NN)n2CCCC)nnc1SCC(=O)NN for me?
Reply: 100

Task item: I have this molecule here, Cc1ccc(-n2c(CCCCc3nnc(SCC(=O)NN)n3-c3ccc(C)cc3)nnc2SCC(=O)NN)cc1 , and I need its recorded MIC.
Reply: 12.5

Task item: Find the recorded MIC belonging to CCOc1ccc(-n2c(CCCCc3nnc(SC(=O)N(CC)CC)n3-c3ccc(OCC)cc3)nnc2SC(=O)N(CC)CC)cc1 and report it.
Reply: 50

* * *

- System: Bacillus subtilis
- Method summary: Antibacterial activity against Bacillus subtilis ATCC 6633 after 24 hr by serial dilution method
- Format: functional
- Condition notes: ATCC 6633, 24 h
Reported metric: MIC
Answer format reminder: number followed by unit.

Task item: Entry CCOC(=O)CSc1nnc(CCCCc2nnc(SCC(=O)OCC)n2-c2ccccc2)n1-c1ccccc1 has what MIC?
Reply: 100 µg/mL

Task item: // MIC lookup, key: NNC(=O)CSc1nnc(CCCCc2nnc(SCC(=O)NN)n2-c2ccccc2)n1-c1ccccc1
Reply: 25 µg/mL

Task item: # MIC lookup, item CC1(C)S[C@@H]2[C@H](NC(=O)[C@H](N)c3ccccc3)C(=O)N2[C@H]1C(=O)O [AMPICILLIN]
Reply: 12.5 µg/mL

Task item: // query MIC value for entry NNC(=O)CSc1nnc(CCCCc2nnc(SCC(=O)NN)n2C2CCCCC2)n1C1CCCCC1
Reply: 100 µg/mL

Task item: Consider the compound CCCCn1c(CCCCc2nnc(SCC(=O)OCC)n2CCCC)nnc1SCC(=O)OCC and give its measured MIC.
Reply: 100 µg/mL

* * *

For each record, write down the corresponding IC50.
- Test system: HT-29
- Method summary: Cytotoxicity against Homo sapiens (human) HT-29 cells after 72 hr by MTT assay
- Assay type: functional, cell-based
- Condition notes: HT-29, 72 h
I only need the number, in µM, no unit after it.

Task item: Form entry - test system: HT-29; read-out: IC50; compound: CCOC(=O)CSc1nnc(CCCCc2nnc(SCC(=O)OCC)n2C2CCCCC2)n1C1CCCCC1
Reply: 65.3

Task item: Entry CCN(CC)C(=O)Sc1nnc(CCCCc2nnc(SC(=O)N(CC)CC)n2-c2ccc(C)cc2)n1-c1ccc(C)cc1 , system HT-29: what IC50 was measured?
Reply: 3.45

Task item: Give the reported IC50 for CCOc1ccc(-n2c(CCCCc3nnc(SCC(=O)NN)n3-c3ccc(OCC)cc3)nnc2SCC(=O)NN)cc1 (system: HT-29).
Reply: 5.16

Task item: GET /values?readout=IC50&system=HT-29&item= CCN(CC)C(=O)Sc1nnc(CCCCc2nnc(SC(=O)N(CC)CC)n2-c2cccc(C)c2)n1-c1cccc(C)c1
Reply: 10.2

Task item: API: value(readout= IC50, system= HT-29, query= Cc1cccc(-n2c(CCCCc3nnc(SCC(=O)NN)n3-c3cccc(C)c3)nnc2SCC(=O)NN)c1 )
Reply: 38.2

Task item: Tell me reported IC50 for CCOC(=O)CSc1nnc(CCCCc2nnc(SCC(=O)OCC)n2-c2ccc(C)cc2)n1-c1ccc(C)cc1 , tested with HT-29.
Reply: 13.5

Task item: State its IC50 on HT-29: COc1cccc2c1C(=O)c1c(O)c3c(c(O)c1C2=O)C[C@@](O)(C(=O)CO)C[C@@H]3O[C@H]1C[C@H](N)[C@H](O)[C@H](C)O1
Reply: 0.07

Task item: Tell me reported IC50 for CCOc1ccc(-n2c(CCCCc3nnc(SC(=O)N(CC)CC)n3-c3ccc(OCC)cc3)nnc2SC(=O)N(CC)CC)cc1 , tested with HT-29.
Reply: 75

Task item: Missing value: IC50, HT-29, entry NNC(=O)CSc1nnc(CCCCc2nnc(SCC(=O)NN)n2-c2ccccc2)n1-c1ccccc1 . Fill in?
Reply: 65.3

Task item: Item: CCOC(=O)CSc1nnc(CCCCc2nnc(SCC(=O)OCC)n2-c2ccc(OCC)cc2)n1-c1ccc(OCC)cc1 Test system: HT-29 Read-out: IC50 Value: ?
Reply: 13.2

Task item: Please state recorded IC50 (tested on HT-29) of CCCCn1c(CCCCc2nnc(SCC(=O)OCC)n2CCCC)nnc1SCC(=O)OCC
Reply: 69.8

Task item: Lab note: need IC50 with HT-29 for entry CCCCn1c(CCCCc2nnc(SC(=O)N(CC)CC)n2CCCC)nnc1SC(=O)N(CC)CC , please look it up.
Reply: 64.5

Task item: Notebook entry, HT-29 assay: IC50 of CCCCn1c(CCCCc2nnc(SCC(=O)NN)n2CCCC)nnc1SCC(=O)NN = ?
Reply: 63.4

Task item: Query IC50 on HT-29 for CCN(CC)C(=O)Sc1nnc(CCCCc2nnc(SC(=O)N(CC)CC)n2-c2ccccc2)n1-c1ccccc1
Reply: 14.3

Task item: Query the reported IC50 for HT-29; item: NNC(=O)CSc1nnc(CCCCc2nnc(SCC(=O)NN)n2C2CCCCC2)n1C1CCCCC1
Reply: 66.2

Task item: Lookup: IC50 / HT-29 / CCOC(=O)CSc1nnc(CCCCc2nnc(SCC(=O)OCC)n2-c2cccc(C)c2)n1-c1cccc(C)c1
Reply: 25.8

Task item: Given the entry Cc1ccc(-n2c(CCCCc3nnc(SCC(=O)NN)n3-c3ccc(C)cc3)nnc2SCC(=O)NN)cc1 , what IC50 was observed with HT-29?
Reply: 31.2

Task item: Give HT-29 IC50 for CCOC(=O)CSc1nnc(CCCCc2nnc(SCC(=O)OCC)n2-c2ccccc2)n1-c1ccccc1
Reply: 51.2

Task item: Record CCN(CC)C(=O)Sc1nnc(CCCCc2nnc(SC(=O)N(CC)CC)n2C2CCCCC2)n1C1CCCCC1 : what is its IC50 with HT-29?
Reply: 69.9
